test-system: IKKe (Homo sapiens (Human))
Sequence (Q14164 whole entry, species assumed): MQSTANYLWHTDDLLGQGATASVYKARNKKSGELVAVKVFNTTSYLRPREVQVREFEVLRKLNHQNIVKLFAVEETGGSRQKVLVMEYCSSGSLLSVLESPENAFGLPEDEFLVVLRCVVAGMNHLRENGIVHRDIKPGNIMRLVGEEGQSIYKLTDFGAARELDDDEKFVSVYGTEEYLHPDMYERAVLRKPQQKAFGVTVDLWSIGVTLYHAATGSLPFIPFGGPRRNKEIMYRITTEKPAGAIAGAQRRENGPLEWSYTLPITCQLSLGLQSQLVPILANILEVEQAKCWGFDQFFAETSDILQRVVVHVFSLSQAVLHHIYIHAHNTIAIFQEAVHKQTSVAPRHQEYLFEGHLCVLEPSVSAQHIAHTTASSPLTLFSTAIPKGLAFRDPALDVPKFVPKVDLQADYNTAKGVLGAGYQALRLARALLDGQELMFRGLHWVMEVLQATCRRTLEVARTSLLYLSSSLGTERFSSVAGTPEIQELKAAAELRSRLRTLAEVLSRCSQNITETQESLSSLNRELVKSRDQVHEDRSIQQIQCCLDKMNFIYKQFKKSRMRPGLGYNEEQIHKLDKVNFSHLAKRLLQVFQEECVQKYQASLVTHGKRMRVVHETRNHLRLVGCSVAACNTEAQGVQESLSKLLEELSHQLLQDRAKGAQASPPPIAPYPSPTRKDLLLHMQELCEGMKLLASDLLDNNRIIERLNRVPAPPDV
Where a name gives a salt, the structure may show the parent alone.
Consider the following compounds; for each one, report its IC50.

// query // IC50 lookup, key: COc1nc(Nc2cc(-c3ccc(O[C@H]4CCN(C(=O)CO)C[C@H]4F)c(C#N)c3)ncn2)ccc1C(=O)N(C)C [Example 47]
// result < 100 nM

// query // IC50 lookup, key: CN(C)C(=O)c1ccc(Nc2cc(-c3ccc(OC4CCOCC4)c(C#N)c3)ncn2)nc1 [Example 30]
// result < 100 nM

// query // IC50 lookup, key: COc1nc(Nc2cc(-c3ccc(OC4CCOCC4)c(C#N)n3)ncn2)ccc1C1CCN(C)CC1 [Example 25]
// result 1000 to 5000 nM

// query // IC50 lookup, key: COc1nc(Nc2cc(-c3ccc(OC4CCOCC4)c(C#N)c3)ncn2)ccc1CNC1CCN(C)CC1 [Example 19]
// result < 100 nM

// query // IC50 lookup, key: COc1nc(Nc2cc(-c3ccc(OC4CCN(C(=O)[C@H](C)O)CC4(F)F)c(C#N)c3)ncn2)ccc1N1CCN(C2COC2)C[C@@H]1C (some centres unmarked) [Example 72]
// result < 100 nM

// query // IC50 lookup, key: COc1nc(Nc2cc(-c3ccc(OC4CCN(C(=O)c5cnco5)CC4)c(C#N)c3)ncn2)ccc1N1CCN(C)CC1 [Example 56]
// result < 100 nM

// query // IC50 lookup, key: COc1cc(Nc2cc(-c3ccc(OC4CCOCC4)c(C#N)c3)ncn2)ncc1C1CCN(C)CC1 [Example 36]
// result < 100 nM

// query // IC50 lookup, key: COc1nc(Nc2cc(-c3ccc(OC4CCOCC4)c(C#N)c3)ncn2)ccc1C(=O)N1CC2COCC2C1 (centres unmarked) [Example 6]
// result < 100 nM

// query // IC50 lookup, key: COc1nc(Nc2cc(-c3ccc(O[C@H]4CCN(C(=O)[C@H](C)O)CC4(F)F)c(C#N)c3)ncn2)ccc1N1CCN(C2COC2)CC1 [Example 91]
// result < 100 nM

// query // IC50 lookup, key: COc1nc(Nc2cc(-c3ccc(OC4CCNCC4(F)F)c(C#N)c3)ncn2)ccc1N1CCN(C2COC2)CC1 (centres unmarked) [Example 76]
// result < 100 nM

// query // IC50 lookup, key: COc1nc(Nc2cc(-c3ccc(OC4CCOCC4)c(C#N)c3)ncn2)ccc1C(=O)NC1CCN(C)CC1 [Example 7, hydrochloride]
// result < 100 nM

// query // IC50 lookup, key: COc1nc(Nc2cc(-c3ccc(OC4CCOCC4)c(C#N)c3)ncn2)ccc1N1CCN(CC(F)F)CC1 [Example 14]
// result < 100 nM

// query // IC50 lookup, key: COc1nc(Nc2cc(-c3ccc(OC4CCN(C(=O)c5n[nH]c(C)n5)CC4)c(C#N)c3)ncn2)ccc1N1CCN(C)CC1 [Example 55]
// result < 100 nM

// query // IC50 lookup, key: COc1nc(Nc2cc(-c3cnc(OC4CCOCC4)c(C#N)c3)ncn2)ccc1C(=O)N(C)C [Example 9, hydrochloride]
// result < 100 nM

Values from patent US11440899B2
